System: PBMC-derived induced microglia-like cells (piMGLC)
Experiment: synaptosome phagocytic index relative to DMSO control (fraction of DMSO); higher = more phagocytosis
Details: concentration: 10 uM (2 uM for compounds listed in Table S2); pretreatment time: 24 h; assay time: 3 h
Where a name gives a salt, the structure may show the parent alone.
MEASURED_PROPERTY: synaptosome phagocytic index

COC(=O)/C=C/C(=O)OC [Dimethyl_fumarate] ... 0.706
FC(F)(F)c1ccc(CNc2ccc(Cc3c[nH]c4ncc(Cl)cc34)cn2)cn1 [Pexidartinib_(hydrochloride)] ... 0.976
CC(=O)OCC(=O)[C@@]1(O)CC[C@H]2[C@@H]3CCC4=CC(=O)C=C[C@]4(C)[C@H]3[C@@H](O)C[C@@]21C [Prednisolone_acetate] ... 0.605
CS(=O)(=O)OCCCCOS(C)(=O)=O ... 0.829
CCCCCCCC(=O)c1c(O)cc(O)cc1CC(=O)OCC ... 0.114

molecule Nc1nc(Cl)nc2c1ncn2[C@H]1C[C@H](O)[C@@H](CO)O1 , synaptosome phagocytic index observed: 1.1

response.value for CCN(CC)CC#CCOC(=O)C(O)(c1ccccc1)C1CCCCC1 (stereo not drawn) (field: synaptosome phagocytic index) = 0.889

In plain terms, CN(C)C(=O)c1cc2cnc(Nc3ccc(N4CCNCC4)cn3)nc2n1C1CCCC1 [Ribociclib_hydrochloride] has a documented synaptosome phagocytic index of 0.332

###

System: PBMC-derived induced microglia-like cells (piMGLC)
Assay: synaptosome phagocytic index relative to DMSO control (fraction of DMSO); higher = more phagocytosis
Settings: concentration: 10 uM (2 uM for compounds listed in Table S2); pretreatment time: 24 h; assay time: 3 h
Counter-ions that a name gives are not always drawn.
Values of synaptosome phagocytic index greater than or equal to 0.7 map to Met; values below map to Not met.

Cc1ccc(C(=O)c2cc(O)c(O)c([N+](=O)[O-])c2)cc1 ... Not met
COC(=O)/C=C/c1ccc(O)c(OC)c1 ... Met
O=C1CCC(N2C(=O)c3ccccc3C2=O)C(=O)N1 (stereo not drawn) [Thalidomide] ... Met

QUERY: Hello, I need to know if COc1cccc2c1C(=O)c1c(O)c3c(c(O)c1C2=O)C[C@@](O)(C(=O)CO)C[C@@H]3O[C@H]1C[C@H](N)[C@@H](O)[C@H](C)O1 [Epirubicin_(hydrochloride)] has measured synaptosome phagocytic index not below 0.7. Thanks!
RESULT: Met

QUERY: Is the recorded value of synaptosome phagocytic index equal to or greater than 0.7 for this molecule? COc1nccc(-c2c(-c3ccc(F)cc3)ncn2C2CCC(O)CC2)n1 (stereo not drawn)
RESULT: Met

QUERY: Say whether CCCCNc1ncc2c(-c3ccc(CN4CCN(C)CC4)cc3)cn([C@H]3CC[C@H](O)CC3)c2n1 shows synaptosome phagocytic index of 0.7 or more.
RESULT: Not met

QUERY: Confirm if synaptosome phagocytic index reported for the molecule COc1cc(C(C)=O)ccc1OCCCN1CCC(c2noc3cc(F)ccc23)CC1 is 0.7 or above.
RESULT: Met

###

Test system: PBMC-derived induced microglia-like cells (piMGLC)
Test: synaptosome phagocytic index relative to DMSO control (fraction of DMSO); higher = more phagocytosis
Conditions: concentration: 10 uM (2 uM for compounds listed in Table S2); pretreatment time: 24 h; assay time: 3 h
MEASURED_PROPERTY: synaptosome phagocytic index

CC(C)n1c(=O)n(C)c2cnc3cc(F)c(-c4ccc(OCCCN5CCCCC5)nc4)cc3c21 ... 0.706
O=c1c(-c2ccc(O)cc2)coc2cc(O)cc(O)c12 [Genistein] ... 0.792
CC(C)(C)C(=O)NCCCC(=O)O [Pivagabine] ... 0.829
CC(=O)[C@H]1CC[C@H]2[C@@H]3CC=C4C[C@@H](O)CC[C@]4(C)[C@H]3CC[C@]12C [Pregnenolone] ... 0.878
Cc1nc2n(c(=O)c1CCN1CCC(c3noc4cc(F)ccc34)CC1)CCCC2 [Risperidone] ... 0.887

As a next step, examine the molecule that follows.
Documented synaptosome phagocytic index of N[C@H](C(=O)O)[C@H](O)c1ccc(O)c(O)c1 [Droxidopa] : 0.507

###

Test system: PBMC-derived induced microglia-like cells (piMGLC)
Experiment: synaptosome phagocytic index relative to DMSO control (fraction of DMSO); higher = more phagocytosis
Conditions: concentration: 10 uM (2 uM for compounds listed in Table S2); pretreatment time: 24 h; assay time: 3 h
Binary call on synaptosome phagocytic index: criterion met from 0.9 upward, criterion not met beneath that.

OC1(CN2CCC(COc3noc4cccc(O[C@@H]5CCOC5)c34)CC2)CCOCC1 ... criterion not met

QUERY: Evaluate CCOC(=O)C1=C(C)NC(C)=C(C(=O)OC)C1c1cccc(Cl)c1Cl (stereo not given) : synaptosome phagocytic index at minimum 0.9?
RESULT: criterion met

QUERY: Does CC1(C)S[C@@H]2[C@H](NC(=O)[C@H](N)c3ccc(O)cc3)C(=O)N2[C@H]1C(=O)O [Amoxicillin_(trihydrate)] have a reported synaptosome phagocytic index of at least 0.9?
RESULT: criterion met

QUERY: Does the molecule N[C@@H](CC(=O)O)C(=O)O have recorded synaptosome phagocytic index that is 0.9 or more?
RESULT: criterion not met

QUERY: Quick check: does N[C@@H]1CONC1=O have synaptosome phagocytic index greater than or equal to 0.9?
RESULT: criterion not met

###

Test system: PBMC-derived induced microglia-like cells (piMGLC)
Assay: synaptosome phagocytic index relative to DMSO control (fraction of DMSO); higher = more phagocytosis
Conditions: concentration: 10 uM (2 uM for compounds listed in Table S2); pretreatment time: 24 h; assay time: 3 h
Structures can show the parent of a compound that is named as a salt.
Parameter synaptosome phagocytic index: see the listing below.
Give only the figure.

Examples from the recorded data:
COc1cc2c(N3CCN(C(=O)Nc4ccc(OC(C)C)cc4)CC3)ncnc2cc1OCCCN1CCCCC1 [Tandutinib_(hydrochloride)] ... 0.778
CCCCCCCCCC(=O)OCCN1CCN(CCCN2c3ccccc3Sc3ccc(C(F)(F)F)cc32)CC1 [Fluphenazine_decanoate] ... 1.03
C#CCNS(=O)(=O)c1ccc(CCN(Cc2cc(Cl)ccc2OCCC)C(=O)Cc2ccsc2)cc1 ... 0.54
Cc1cc2c(s1)Nc1ccccc1N=C2N1CCN(C)CC1 ... 0.345

So, COc1ncc(F)cc1CNc1ccc(Cc2c[nH]c3ncc(C)cc23)c(F)n1 ? Its synaptosome phagocytic index was 0.951

###

System: PBMC-derived induced microglia-like cells (piMGLC)
Test: synaptosome phagocytic index relative to DMSO control (fraction of DMSO); higher = more phagocytosis
Conditions: concentration: 10 uM (2 uM for compounds listed in Table S2); pretreatment time: 24 h; assay time: 3 h
synaptosome phagocytic index: recorded values
No unit in the answer, please; the number alone is enough.

Cc1ccc(C(=O)NCCCCCC(=O)Nc2ccccc2N)cc1 ... 0.694
COc1ccc(Cl)cc1C(=O)NCCc1ccc(S(=O)(=O)NC(=O)NC2CCCCC2)cc1 [Glibenclamide] ... 0.608
COc1cc2nc(N(C)CCCNC(=O)C3CCCO3)nc(N)c2cc1OC (stereo not drawn) [Alfuzosin] ... 0.938
CCc1c2c(nc3ccc(OC(=O)N4CCC(N5CCCCC5)CC4)cc13)-c1cc3c(c(=O)n1C2)COC(=O)[C@]3(O)CC [Irinotecan] ... 0.692
CC1CCN(CC[C@H]2CCCN2S(=O)(=O)c2cccc(O)c2)CC1 ... 0.817

So for CC[C@H](CO)Nc1nc(NCc2ccccc2)c2ncn(C(C)C)c2n1 [Seliciclib] , the logged synaptosome phagocytic index turned out to be 0.569

Looking up Nc1ccn([C@@H]2O[C@H](CO)[C@@H](O)[C@@H]2O)c(=O)n1 [Cytarabine] , I found its synaptosome phagocytic index recorded as 0.44

// synaptosome phagocytic index value for CS(=O)(=O)CCNCc1ccc(-c2ccc3ncnc(Nc4ccc(OCc5cccc(F)c5)c(Cl)c4)c3c2)o1 [Lapatinib] : 0.0755

###

Tested on: PBMC-derived induced microglia-like cells (piMGLC)
Experiment: synaptosome phagocytic index relative to DMSO control (fraction of DMSO); higher = more phagocytosis
Details: concentration: 10 uM (2 uM for compounds listed in Table S2); pretreatment time: 24 h; assay time: 3 h
Respond with Criterion met for synaptosome phagocytic index values of 0.4 and above, Criterion not met for values below.

Recorded results for 3 compounds are shown here.
COc1c(N2CCNC(C)C2)c(F)cc2c(=O)c(C(=O)O)cn(C3CC3)c12 (stereo not given) [Gatifloxacin] ... Criterion met
CCc1cc(F)c2nc(N3CCC(NC4CCOCC4)CC3)c(-c3nc(C)no3)c(C)c2c1 ... Criterion met
CC(=O)Nc1ccc(C(=O)Nc2cc(-c3cccs3)ccc2N)cc1 ... Criterion met

QUERY: Can CC(C)(C)CCN1C[C@@H]2C(CNC(=O)c3cc(Cl)cc(Cl)c3)[C@@H]2C1 (stereo not given in full) be said to have synaptosome phagocytic index at or above 0.4?
RESULT: Criterion not met

QUERY: Could you verify whether the entry CC1(C)S[C@@H]2[C@H](NC(=O)[C@H](NC(=O)N3CCN(S(C)(=O)=O)C3=O)c3ccccc3)C(=O)N2[C@H]1C(=O)O [Mezlocillin_(sodium)] shows synaptosome phagocytic index of no less than 0.4?
RESULT: Criterion met
